# method: protein stability index of a GFP-peptide fusion (yeast GPS) (PSI 1-4); higher = more stable; sorted into four equal gates, so the index is relative within each strain
# condition.description: pdr5∆
# protein stability index listing for each entry below

sequence.string	protein stability index
IHFADVAHITTKSPAYP [RGR1]	2.61
KKVASANATAAESDVAK [RPL16A]	3.04
IAGHDEFNGFSLYQVDP [PRE8]	3.31
LIELLTQMDGFDQSTNV [RPT3]	2.19
LTFVSVDEELGPSIYKT [SCL1]	1.94
VILGADSRTTTGAYIAN [PRE3]	3.41
SRILYKAIRGMVSHKTA [RPL16B]	1.2
GNDFKFNYQGDELVLNF [REC8]	3.42
